These entries and their values trace back to PubChem BioAssay AID328.

test system: BDF1 mice, P388 leukemia ip, median survival T/C; assay: NCI In Vivo Anticancer Drug Screen. Data for tumor model P388 Leukemia (intraperitoneal) in B6D2F1 (BDF1) mice; conditions: endpoint: median survival time; dose: 50.0 mg/kg/injection; schedule: Q01DX009 (ip); vehicle: saline with Tween-80
Inconclusive results and toxic doses are left out. Rule for the calls: active = survival T/C of 150% or more; inactive = T/C below 125% in these data.
Reply using exactly one outcome from active, inactive

Answered cases to consult:
{"compound": "Cc1ccc(C(=O)N(N)C2CCCCC2)cc1", "class-name": "inactive"}
{"compound": "OCCOc1c(Cl)c(Cl)c(Cl)c(Cl)c1Cl", "class-name": "inactive"}

What call does the record list for "CCCN(CCC)CCSC(=S)NCCOC" ?
inactive

What call does the record list for "CC(C)(C)CC(C)(C)c1ccc(O)cc1O" ?
inactive

What call does the record list for "Clc1nc2nc[nH]c2nc1Cl" ?
inactive

What call does the record list for CCOC(=O)C1SC(=S)N(C)C1=O (stereo not given) ?
inactive

What call does the record list for "Cc1ccc2nc(C)n(C)c(=O)c2c1" ?
inactive

What call does the record list for "Cn1c2c(c3ccccc3c1=O)C(=O)c1ccccc1-2" ?
inactive

What call does the record list for "N#Cc1cccc(CC(O)(c2ccccc2)c2ccccc2)c1" ?
inactive

###

system: BDF1 mice, P388 leukemia ip, median survival T/C; assay: NCI In Vivo Anticancer Drug Screen. Data for tumor model P388 Leukemia (intraperitoneal) in B6D2F1 (BDF1) mice; settings: endpoint: median survival time; dose: 12.5 mg/kg/injection; schedule: Q01DX009 (ip); vehicle: saline; higher = longer survival
Inconclusive results and toxic doses are left out.
property-label: T/C

Guide cases for T/C, answers given:
{"compound": "C[N+](C)=C1C=CC(=C2C=CSC=C2)C=C1", "T/C": "100 % of control"}
{"compound": "Cc1nccnc1N", "T/C": "105 % of control"}

// for each compound in input: emit T/C
1. CC(C)(C)C1CC[N-]CC1.CC(C)(C)C1CC[N-]CC1.[Cl][Pt+2]([Cl])([Cl])[Cl]
2. CSc1ncc2n1C=CN(C(=O)c1ccc([N+](=O)[O-])cc1)C2O (configuration not stated)
3. C1CCN(NC2=NCCO2)CC1
4. CC(=N\O)/C(C)=N/O.CC(=N\O)/C(C)=N/O.[Cl][Co][Cl]
5. NC(CSC(c1ccccc1)(c1ccccc1)c1ccc2ccccc2c1)C(=O)O (configuration not stated)

1: 115 % of control; 2: 99 % of control; 3: 95 % of control; 4: 100 % of control; 5: 89 % of control

###

tested on: BDF1 mice, P388 leukemia ip, median survival T/C; assay: NCI In Vivo Anticancer Drug Screen. Data for tumor model P388 Leukemia (intraperitoneal) in B6D2F1 (BDF1) mice; settings: endpoint: median survival time; dose: 100.0 mg/kg/injection; schedule: Q04DX003 (ip); vehicle: Klucel (hydroxypropylcellulose) (HPC); higher = longer survival
Inconclusive results and toxic doses are left out.
property-label: T/C

{"compound": "CCOC(=O)/C(C#N)=C/c1ccc(O)c(OC)c1", "T/C": "95 % of control"}
{"compound": "CC(C)Sc1nc(N)nc2nc[nH]c12", "T/C": "105 % of control"}
{"compound": "Cc1cc2c(cc1C)NC(=O)CC(=O)N2", "T/C": "100 % of control"}

Turning now to a further record.
Lab note: BDF1 mice, P388 leukemia ip, median survival T/C assay, enter T/C for O=C1c2ccccc2CCC12OC2c1ccc(Cl)cc1 (centres undefined) here
100 % of control
